Entries and their measured inhibition at 1 µM follow.
biological target: SCD1 (Rattus norvegicus (Rat)); test: SCD1 enzymatic assay in rat liver microsomes (RLM); type: biochemical; conditions: 1 μM test compound, rat liver microsomes; read-out: % Inh.@ 1 μM
Sequence (P07308 whole entry): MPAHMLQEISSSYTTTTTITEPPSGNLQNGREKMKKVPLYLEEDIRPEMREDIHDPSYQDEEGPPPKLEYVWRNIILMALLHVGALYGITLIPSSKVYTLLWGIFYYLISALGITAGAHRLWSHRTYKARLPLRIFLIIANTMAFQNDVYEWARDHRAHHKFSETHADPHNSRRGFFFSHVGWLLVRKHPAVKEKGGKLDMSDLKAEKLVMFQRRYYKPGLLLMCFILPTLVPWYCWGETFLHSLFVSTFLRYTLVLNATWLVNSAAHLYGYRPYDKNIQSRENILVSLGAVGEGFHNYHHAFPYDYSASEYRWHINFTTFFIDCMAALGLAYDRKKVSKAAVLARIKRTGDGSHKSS
quantity: inhibition at 1 µM (%)

1. CCOCCn1cc(-c2ccc(N3CCC(N4CCc5ccc(F)cc54)CC3)nn2)cn1 [Compound #78]; 99
2. OCc1ccc(-c2ccc(N3CCC(N4CCc5ccc(F)cc54)CC3)nn2)cc1 [Compound #51]; 96
3. Cn1cc(-c2ccc(N3CCC(n4ccc5ccc(F)cc54)CC3)nn2)cn1 [Compound #63]; 99
4. Cc1cn(-c2ccc(N3CCC(N4CCCc5ccccc54)CC3)nn2)cn1 [compound 90]; 29
5. O=C(O)c1ccc(-c2ccc(N3CCC(N4CCc5ccc(F)cc54)CC3)nn2)cc1 [Compound #58]; 78
6. CCOCc1cnn(-c2ccc(N3CCC(N4CCc5ccc(F)cc54)CC3)nn2)c1 [Compound #72]; 99
7. Cc1cc(-c2ccc(N3CCC(c4noc5ccc(F)cc45)CC3)nn2)ccn1 [compound 25]; 62
8. OCc1ccc(-c2ccc(N3CCC(c4noc5ccc(F)cc45)CC3)nn2)cn1 [compound 35]; 99
9. CC(=O)Nc1ccc(-c2ccc(N3CCC(N4CCc5ccc(F)cc54)CC3)nn2)cn1 [compound 45]; 98
10. Cc1cnc(-c2ccc(N3CCC(N4CCc5ccc(F)cc54)CC3)nn2)s1 [Compound #31]; 97
11. CNCc1cnn(-c2ccc(N3CCC(c4noc5ccc(F)cc45)CC3)nn2)c1 [compound 97]; 11
12. Cc1csc(-c2ccc(N3CCC(N4CCc5ccc(F)cc54)CC3)nn2)n1 [Compound #29]; 97
13. OCCn1cc(-c2ccc(N3CCC(n4ncc5ccc(F)cc54)CC3)nn2)cn1 [compound 82]; 99
14. NC(=O)Cn1cc(-c2ccc(N3CCC(N4CCc5ccc(F)cc54)CC3)nn2)cn1 [compound 69]; 68
15. OCc1nnc(-c2ccc(N3CCC(c4noc5ccc(F)cc45)CC3)nn2)o1 [compound 20]; 96
16. Cn1cc(-c2ccc(N3CCC(n4ccc5ccccc54)CC3)nn2)cn1 [Compound #9]; 81
17. COc1ncc(-c2ccc(N3CCC(N4CCc5ccc(F)cc54)CC3)nn2)cn1 [compound 38]; 97
18. Cc1ccc(-c2ccc(N3CCC(c4noc5ccc(F)cc45)CC3)nn2)cn1 [compound 24]; 98
19. Cc1nsc(-c2ccc(N3CCC(n4ccc5ccccc54)CC3)nn2)n1 [Compound #6]; 79
20. Cn1cc(-c2ccc(N3CCC(n4ncc5c(Cl)cccc54)CC3)nn2)cn1 [compound 61]; 101
21. CCn1cc(-c2ccc(N3CCC(N4CCc5ccc(F)cc54)CC3)nn2)cn1 [Compound #21]; 94
22. Cn1cc(-c2ccc(N3CCC(N4CCc5ccccc54)CC3)nn2)cn1 [Compound #10]; 84
23. Cn1cc(-c2ccc(N3CCC(n4ncc5cc(F)ccc54)CC3)nn2)cn1 [compound 73]; 86
24. Cn1cc(-c2ccc(N3CCC(n4ncc5c(C(F)(F)F)cccc54)CC3)nn2)cn1 [compound 80]; 74
25. CN(C)c1ccc(-c2ccc(N3CCC(N4CCc5ccc(F)cc54)CC3)nn2)cn1 [Compound #44]; 92
26. Cc1ccc(-c2ccc(N3CCC(N4CCc5ccc(F)cc54)CC3)nn2)cn1 [Compound #30]; 95
27. CCn1cc(-c2ccc(N3CCC(c4noc5ccc(F)cc45)CC3)nn2)cn1 [compound 13]; 98
28. Cn1cc(-c2ccc(N3CCC(N4CCc5c(Cl)cc(Cl)cc54)CC3)nn2)cn1 [compound 68]; 34
29. Fc1ccc(-c2ccc(N3CCC(N4CCc5ccc(F)cc54)CC3)nn2)cc1 [Compound #53]; 59
30. COCc1cnn(-c2ccc(N3CCC(c4noc5ccc(F)cc45)CC3)nn2)c1 [compound 96]; 98
31. CCOCCn1cc(-c2ccc(N3CCC(c4noc5ccc(F)cc45)CC3)nn2)cn1 [compound 75]; 98
32. NC(=O)c1ccc(-c2ccc(N3CCC(N4CCc5ccc(F)cc54)CC3)nn2)cc1 [compound 56]; 28
33. Fc1ccc2c(c1)N(C1CCN(c3ccc(-c4cn[nH]c4)nn3)CC1)CC2 [compound 77]; 95
34. Cc1csc(-c2ccc(N3CCC(c4noc5ccc(F)cc45)CC3)nn2)n1 [compound 23]; 100
35. Fc1ccc2onc(C3CCN(c4ccc(-c5cn[nH]c5)nn4)CC3)c2c1 [compound 26]; 86

* * *

Entries and their measured inhibition at 1 µM follow.
molecular target: SCD1 (Rattus norvegicus (Rat)); assay: SCD1 enzymatic assay in rat liver microsomes (RLM); type: biochemical; details: 1 μM test compound, rat liver microsomes; read-out: % Inh.@ 1 μM
quantity: inhibition at 1 µM (%)

1. COc1ccc(-c2ccc(N3CCC(N4CCc5ccc(F)cc54)CC3)nn2)cn1; 98
2. Fc1ccc2onc(C3CCN(c4ccc(-n5ccnc5)nn4)CC3)c2c1; 85
3. CCOC(=O)Cn1cc(-c2ccc(N3CCC(N4CCc5ccc(F)cc54)CC3)nn2)cn1; 93
4. Cc1ccc(-c2ccc(N3CCC(N4CCc5ccc(F)cc54)CC3)nn2)cc1; 92
5. Cc1nsc(-c2ccc(N3CCC(N4CCc5ccccc54)CC3)nn2)n1; 95
6. Fc1ccc2c(c1)N(C1CCN(c3ccc(-c4ccc(C(F)(F)F)nc4)nn3)CC1)CC2; 97
7. Cn1cc(-c2ccc(N3CCC(n4c(C(F)(F)F)nc5ccccc54)CC3)nn2)cn1; 38
8. Fc1ccc2onc(C3CCN(c4ccc(-n5cccn5)nn4)CC3)c2c1; 45

* * *

molecular target: UniProt:P07308; assay: SCD1 enzymatic assay in rat liver microsomes (RLM); assay type: biochemical; settings: 1 μM test compound, rat liver microsomes; read-out: % Inh.@ 1 μM
Entries and their measured inhibition at 1 µM follow.
quantity: inhibition at 1 µM (%)

1. CC(=O)NNC(=O)c1ccc(N2CCC(c3noc4ccc(F)cc34)CC2)nn1; 27
2. OCc1cn(-c2ccc(N3CCC(N4CCc5ccc(F)cc54)CC3)nn2)cn1; 101
3. Cc1cnn(-c2ccc(N3CCC(c4noc5ccc(F)cc45)CC3)nn2)c1; 96

* * *

molecular target: UniProtKB P07308; assay: SCD1 enzymatic assay in rat liver microsomes (RLM); type: biochemical; conditions: 1 μM test compound, rat liver microsomes; read-out: % Inh.@ 1 μM
Entries and their measured inhibition at 1 µM follow.
quantity: inhibition at 1 µM (%)

1) Fc1ccc2c(c1)N(C1CCN(c3ccc(-c4ccc(C(F)(F)F)cc4)nn3)CC1)CC2; 85
2) Cn1cc(-c2ccc(N3CCC(n4ncc5ccccc54)CC3)nn2)cn1; 92
3) Cc1nsc(-c2ccc(N3CCC(N4CCc5ccc(F)cc54)CC3)nn2)n1; 95
4) Cc1nccn1-c1ccc(N2CCC(c3noc4ccc(F)cc34)CC2)nn1; 41
5) CCCn1cc(-c2ccc(N3CCC(N4CCc5ccc(F)cc54)CC3)nn2)cn1; 97
6) Cn1cc(-c2ccc(N3CCC(N4CCc5cc(Cl)ccc54)CC3)nn2)cn1; 83
7) Cc1nsc(-c2ccc(N3CCC(c4noc5ccc(F)cc45)CC3)nn2)n1; 89
8) Cn1cc(-c2ccc(N3CCC(c4noc5ccc(F)cc45)CC3)nn2)cn1; 87

* * *

target: SCD1 (Homo sapiens (Human)); test: SCD1 14C-palmitate assay in A431 cells; type: cell-based; details: read-out: A431 cells 14C-PA IC50
Sequence (O00767 whole entry): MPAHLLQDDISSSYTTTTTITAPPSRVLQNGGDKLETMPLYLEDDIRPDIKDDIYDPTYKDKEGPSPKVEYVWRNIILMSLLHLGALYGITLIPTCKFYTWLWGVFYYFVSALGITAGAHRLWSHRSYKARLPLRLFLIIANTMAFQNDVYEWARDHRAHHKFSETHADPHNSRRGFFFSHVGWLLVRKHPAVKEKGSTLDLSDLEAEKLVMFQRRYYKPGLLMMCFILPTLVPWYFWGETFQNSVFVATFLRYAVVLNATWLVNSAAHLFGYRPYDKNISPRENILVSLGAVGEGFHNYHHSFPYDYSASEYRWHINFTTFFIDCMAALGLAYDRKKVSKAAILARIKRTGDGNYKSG
pIC50: −log10 of the molar value.
quantity: pIC50

1) Cc1nsc(-c2ccc(N3CCC(N4CCc5ccccc54)CC3)nn2)n1; 7.62
2) Cn1cc(-c2ccc(N3CCC(c4noc5ccc(F)cc45)CC3)nn2)cn1; 6.42
3) Fc1ccc2onc(C3CCN(c4ccc(-n5ccnc5)nn4)CC3)c2c1; 6.80
4) Cc1cn(-c2ccc(N3CCC(N4CCc5ccc(F)cc54)CC3)nn2)cn1; 7.17
5) Fc1ccc2onc(C3CCN(c4ccc(-c5cccnc5)nn4)CC3)c2c1; 6.24
6) Cc1cn(-c2ccc(N3CCC(n4ccc5ccccc54)CC3)nn2)cn1; 6.94
7) Cc1cn(-c2ccc(N3CCC(N4CCc5ccccc54)CC3)nn2)cn1; 6.59
8) Cc1nsc(-c2ccc(N3CCC(N4CCc5ccc(F)cc54)CC3)nn2)n1; 6.44
9) Cc1ccn(-c2ccc(N3CCC(c4noc5ccc(F)cc45)CC3)nn2)n1; 7.20
10) Cn1cc(-c2ccc(N3CCC(N4CCc5ccccc54)CC3)nn2)cn1; 6.42
11) NNC(=O)c1ccc(N2CCC(c3noc4ccc(F)cc34)CC2)nn1; 5.51
12) Cc1nsc(-c2ccc(N3CCC(c4noc5ccc(F)cc45)CC3)nn2)n1; 6.86
13) Cc1cn(-c2ccc(N3CCC(c4noc5ccc(F)cc45)CC3)nn2)cn1; 6.83
14) Cc1cn(-c2ccc(N3CCC(c4noc5cc(F)ccc45)CC3)nn2)cn1; 6.16
15) Cn1cc(-c2ccc(N3CCC(n4ccc5ccccc54)CC3)nn2)cn1; 6.44
